Assay: Oral bioavailability in dog
Type: ADME, organism-based, Canis lupus familiaris
Conditions: in vivo
measured property: bioavailability (%)
Form entry: value (%) — number only.

Returns the measured bioavailability for the input compound. Input: `CC[C@H](NC(=O)c1c(C[S@+](C)[O-])c(-c2ccccc2)nc2ccccc12)c1ccccc1`
89

---

Experiment: Equilibrium solubility of the compound
Format: physicochemical
Rule: solubility thermodynamic of 60 µM or more gives condition met; anything lower gives condition not met.

Check if solubility thermodynamic >= 60 µM (inclusive). Item: CC[C@H](NC(=O)c1c([S+](C)[O-])c(-c2ccccc2)nc2cc(Br)ccc12)c1ccccc1 (mixture of isomers)
condition not met

What about this compound? CC[C@H](NC(=O)c1c([S+](C)[O-])c(-c2ccccc2)nc2cc(F)ccc12)c1ccccc1 (mixture of isomers)
condition not met

What about this compound? CC[C@H](NC(=O)c1c([S+](C)[O-])c(-c2cccc(F)c2)nc2ccccc12)c1ccccc1 (mixture of isomers)
condition met

What about this compound? C[S+]([O-])c1c(-c2ccccc2)nc2ccccc2c1C(=O)NC1(c2ccccc2)CC1 (racemic)
condition not met

What about this compound? CC[C@H](NC(=O)c1c([S+](C)[O-])c(-c2ccc(F)cc2)nc2ccccc12)c1ccccc1 (mixture of isomers)
condition met

What about this compound? CC[C@H](NC(=O)c1c([S+](C)[O-])c(-c2ccccc2)nc2cc(N(C)C)ccc12)c1ccccc1 (mixture of isomers)
condition not met

What about this compound? CC[C@H](NC(=O)c1c(CS(C)(=O)=O)c(-c2ccccc2)nc2ccccc12)c1ccccc1 (mixture of isomers)
condition not met

What about this compound? CC[C@H](NC(=O)c1c([S+](C)[O-])c(-c2cccnc2)nc2ccccc12)c1ccccc1 (single isomer, unassigned)
condition met

What about this compound? `CC[C@H](NC(=O)c1c(C[S@@+](C)[O-])c(-c2ccccc2)nc2ccccc12)c1ccccc1`
condition not met

What about this compound? CC[C@H](NC(=O)c1c([S+]([O-])CC)c(-c2ccccc2)nc2ccccc12)c1ccccc1 (mixture of isomers)
condition met

What about this compound? CC[C@H](NC(=O)c1c(S(C)(=O)=O)c(-c2ccccc2)nc2ccccc12)c1ccccc1 (mixture of isomers)
condition not met

What about this compound? CC[C@H](NC(=O)c1c([S+](C)[O-])c(-c2ccccc2)nc2cc(Cl)ccc12)c1ccccc1 (mixture of isomers)
condition not met

What about this compound? CC[C@H](NC(=O)c1c([S+](C)[O-])c(-c2cccs2)nc2ccccc12)c1ccccc1 (mixture of isomers)
condition not met

What about this compound? `CC[C@H](NC(=O)c1c([S@+](C)[O-])c(-c2ccccc2)nc2ccccc12)c1ccccc1`
condition met

What about this compound? CCOc1ccc2c(C(=O)N[C@@H](CC)c3ccccc3)c([S+](C)[O-])c(-c3ccccc3)nc2c1 (mixture of isomers)
condition met

---

Give microsomal CLint for every item shown.
Assay: Intrinsic clearance in human liver microsomes assessed per mg of protein
Type: ADME, Microsome
Please report the result as a number followed by the unit.

Returns the measured microsomal CLint for the input compound. Input: `CC[C@H](NC(=O)c1c([S@+](C)[O-])c(-c2ccccc2)nc2ccccc12)c1ccccc1`
23 µL/min/mg

What about this compound? CC[C@H](NC(=O)c1c([S+](C)[O-])c(-c2cccs2)nc2ccccc12)c1ccccc1 (mixture of isomers)
220 µL/min/mg

What about this compound? CC[C@H](NC(=O)c1c([S+](C)[O-])c(-c2ccsc2)nc2ccccc12)c1ccccc1 (mixture of isomers)
190 µL/min/mg

What about this compound? `CC[C@H](NC(=O)c1c(C[S@@+](C)[O-])c(-c2ccccc2)nc2ccccc12)c1ccccc1`
5.2 µL/min/mg

What about this compound? `CC[C@H](NC(=O)c1c(C[S@+](C)[O-])c(-c2ccccc2)nc2ccccc12)c1ccccc1`
8.4 µL/min/mg
